# target: GalNAc(b1-4)GlcNAc
# assay.method.text: glycan array binding signal (z-score within array); higher = stronger binding
# condition.set: glycan notation: IUPAC condensed, linker removed
The full list was thinned out, with the strongest signals kept by preference.
Each entry gets 0 if its glycan array binding signal (z-score) stays under 4, and 1 if its glycan array binding signal (z-score) is 4 or above.

Request: Does glycan array binding signal (z-score) meet or surpass 4 for MIG/CXCL9 (Homo sapiens) (protein) TPVVRKGRCSCISTNQGTIHLQSLKDLKQFAPSPSCEKIEIIIATLKNGVQTCLNPDSADVKELIKKTEKQVSQKKKQKNGKKHQKKKVLKVRKSQRSRQKKTT ?
Result: 0

Request: Could you verify whether the entry TbCVNHOb (Tuber borchii) (protein) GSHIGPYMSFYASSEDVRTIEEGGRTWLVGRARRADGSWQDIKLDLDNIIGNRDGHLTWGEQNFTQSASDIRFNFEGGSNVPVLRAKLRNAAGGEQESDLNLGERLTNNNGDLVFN shows glycan array binding signal (z-score) of no less than 4?
Result: 0

Request: Check the entry pilr alpha (protein) MLYGVTQPKHLSASMGGSVEIPFSFYYPWELATAPDVRISWRRGHFHRQSFYSTRPPSIHKDYVNRLFLNWTEGQKSGFLRISNLQKQDQSVYFCRVELDTRSSGRQQWQSIEGTKLSIT : does glycan array binding signal (z-score) equal or exceed 4?
Result: 1

Request: # bool: glycan array binding signal (z-score) of DC-ASGPR-short (Homo sapiens) (protein) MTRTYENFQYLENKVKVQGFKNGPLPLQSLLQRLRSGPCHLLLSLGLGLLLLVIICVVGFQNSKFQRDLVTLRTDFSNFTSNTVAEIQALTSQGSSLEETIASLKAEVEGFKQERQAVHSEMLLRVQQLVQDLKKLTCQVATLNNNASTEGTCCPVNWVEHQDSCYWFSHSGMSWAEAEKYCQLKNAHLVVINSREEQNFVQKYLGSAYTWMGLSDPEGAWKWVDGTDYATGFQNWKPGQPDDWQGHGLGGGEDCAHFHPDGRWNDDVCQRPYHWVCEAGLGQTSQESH >= 4
Result: 1

Request: Could you verify whether the entry CD23 (Homo sapiens) (protein) MELQVSSGFVCNTCPEKWINFQRKCYYFGKGTKQWVHARYACDDMEGQLVSIHSPEEQDFLTKHASHTGSWIGLRNLDLKGEFIWVDGSHVDYSNWAPGEPTSRSQGEDCVMMRGSGRWNDAFCDRKLGAWVCDRLATCTPPASEGSAESMGPDSRPDPDGRLPTPSAPLHS shows glycan array binding signal (z-score) of no less than 4?
Result: 0

Provenance of the data: the supplement of paper PMC8728848
